Molecular target: HSV polymerase (Human herpesvirus 1, UniProt P04293)
Sequence (P04293 whole entry): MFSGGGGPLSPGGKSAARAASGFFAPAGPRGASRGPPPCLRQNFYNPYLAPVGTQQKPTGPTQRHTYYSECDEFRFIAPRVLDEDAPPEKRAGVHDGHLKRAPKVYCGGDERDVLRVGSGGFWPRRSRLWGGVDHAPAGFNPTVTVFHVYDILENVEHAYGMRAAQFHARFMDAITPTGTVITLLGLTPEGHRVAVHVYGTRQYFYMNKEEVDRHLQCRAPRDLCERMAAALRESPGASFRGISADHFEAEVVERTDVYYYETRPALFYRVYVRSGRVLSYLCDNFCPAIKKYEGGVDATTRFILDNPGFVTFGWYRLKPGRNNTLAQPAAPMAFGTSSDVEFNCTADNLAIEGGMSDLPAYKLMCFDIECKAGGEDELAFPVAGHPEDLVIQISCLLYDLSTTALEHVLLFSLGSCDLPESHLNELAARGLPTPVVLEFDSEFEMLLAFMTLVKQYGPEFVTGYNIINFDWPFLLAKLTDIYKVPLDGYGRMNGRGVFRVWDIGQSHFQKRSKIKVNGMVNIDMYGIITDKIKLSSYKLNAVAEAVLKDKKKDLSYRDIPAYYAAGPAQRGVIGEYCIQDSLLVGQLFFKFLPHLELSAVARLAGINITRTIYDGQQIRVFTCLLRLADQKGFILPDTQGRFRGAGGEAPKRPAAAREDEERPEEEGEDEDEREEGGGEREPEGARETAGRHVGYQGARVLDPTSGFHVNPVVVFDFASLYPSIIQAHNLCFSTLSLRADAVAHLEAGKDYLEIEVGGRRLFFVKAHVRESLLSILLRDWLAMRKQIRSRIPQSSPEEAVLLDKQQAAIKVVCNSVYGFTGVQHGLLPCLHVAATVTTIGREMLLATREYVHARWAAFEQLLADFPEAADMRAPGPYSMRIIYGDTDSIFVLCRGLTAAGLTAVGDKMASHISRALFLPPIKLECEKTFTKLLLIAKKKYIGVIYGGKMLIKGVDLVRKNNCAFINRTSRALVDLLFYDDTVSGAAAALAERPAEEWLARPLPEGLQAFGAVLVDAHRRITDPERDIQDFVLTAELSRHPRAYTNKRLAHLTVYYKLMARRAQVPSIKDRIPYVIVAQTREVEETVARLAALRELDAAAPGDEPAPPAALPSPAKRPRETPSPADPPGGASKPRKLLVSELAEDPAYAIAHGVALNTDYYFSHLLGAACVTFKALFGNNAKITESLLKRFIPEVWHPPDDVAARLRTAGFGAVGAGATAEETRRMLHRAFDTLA
Quantity Name: IC50 (nM)

1. Cc1nc2c(cc1CCCO)c(=O)c(C(=O)NCc1ccc(Cl)cc1)cn2C    2400
2. Cc1nc2c(cc1C#CCO)c(=O)c(C(=O)NCc1ccc(Cl)cc1)cn2C    1900
